# system_tested: HLA B*0801 (Homo sapiens, UniProt P01889, A93T/A95T/D138N/E176V/E187T/K202T/Q94N/R180D/S35A/V36M/Y33D/Y91F)
# method_summary: biochemical
# Assay type: binding
Where a SMILES comes first, the peptide text is derived from it.
Provide the recorded pIC50 for the entries that follow.
Answers are plain numbers, as −log10 of the molar value.

Example compounds with recorded pIC50:
INSERT INTO assay_data (compound, reported_metric, numeric_value) VALUES
  ('CC[C@H](C)[C@H](NC(=O)[C@H](CCC(N)=O)NC(=O)[C@H](CCC(=O)O)NC(=O)[C@H](CCC(N)=O)NC(=O)[C@H](CCCNC(=N)N)NC(=O)[C@H](CCCNC(=N)N)NC(=O)[C@H](CCSC)NC(=O)CNC(=O)[C@@H](N)CO)C(=O)O [3102.0733] (H-SGMRRQEQI-OH)', 'pIC50', 7.77),
  ('CC[C@H](C)[C@H](NC(=O)[C@H](Cc1ccc(O)cc1)NC(=O)[C@@H](NC(=O)[C@H](CCCCN)NC(=O)[C@H](CCCCN)NC(=O)[C@H](Cc1ccccc1)NC(=O)[C@H](CCCNC(=N)N)NC(=O)[C@@H](N)CO)C(C)C)C(=O)N[C@@H](CC(C)C)C(=O)O [3102.0579] (H-SRFKKVYIL-OH)', 'pIC50', 7.12),
  ('CSCC[C@H](NC(=O)[C@H](CC(C)C)NC(=O)[C@H](CCCNC(=N)N)NC(=O)[C@H](CCCCN)NC(=O)[C@H](CCSC)NC(=O)[C@H](CCSC)NC(=O)[C@@H](N)CCSC)C(=O)N[C@@H](Cc1ccccc1)C(=O)N[C@@H](CCC(=O)O)C(=O)O [3102.0672] (H-MMMKRLMFE-OH)', 'pIC50', 7.12),
  ('CC[C@H](C)[C@H](NC(=O)[C@H](Cc1ccccc1)NC(=O)[C@H](CCCCN)NC(=O)[C@@H](NC(=O)[C@@H](N)Cc1ccc(O)cc1)[C@@H](C)CC)C(=O)N[C@@H](Cc1ccccc1)C(=O)N[C@@H](CC(C)C)C(=O)N[C@@H](CCC(N)=O)C(=O)N[C@@H](CCSC)C(=O)O [3102.0918] (H-YIKFIFLQM-OH)', 'pIC50', 8.07),
  ('CC[C@H](C)[C@H](NC(=O)[C@H](CC(C)C)NC(=O)[C@H](CCSC)NC(=O)[C@H](CCCNC(=N)N)NC(=O)[C@@H](NC(=O)[C@H](Cc1ccccc1)NC(=O)[C@@H](NC(=O)[C@@H](N)CO)[C@@H](C)CC)[C@@H](C)CC)C(=O)N[C@@H](CC(C)C)C(=O)O [3102.0701] (H-SIFIRMLIL-OH)', 'pIC50', 8.00),
  ('CC(C)C[C@H](NC(=O)[C@H](Cc1ccc(O)cc1)NC(=O)[C@@H](NC(=O)[C@H](Cc1ccccc1)NC(=O)[C@H](CCCCN)NC(=O)[C@H](CC(C)C)NC(=O)[C@H](CC(C)C)NC(=O)[C@H](C)NC(=O)[C@@H](N)Cc1ccccc1)[C@@H](C)O)C(=O)O [3102.0745] (H-FALLKFTYL-OH)', 'pIC50', 8.80);

*Q* Need pIC50 of CC[C@H](C)[C@H](NC(=O)[C@H](CCCNC(=N)N)NC(=O)[C@H](CCCNC(=N)N)NC(=O)[C@H](CCSC)NC(=O)[C@H](CC(C)C)NC(=O)[C@H](C)NC(=O)[C@@H](N)CC(N)=O)C(=O)N[C@@H](C)C(=O)N[C@H](C(=O)O)C(C)C [3102.0577] (H-NALMRRIAV-OH) , thanks.
*A* 7.77

====

# system_tested: HLA B*1501 (Homo sapiens, UniProt P01889, A329T/A93T/A95T/C349S/D201E/D98Y/E187L/E204Q/E69M/E70A/K202T/N87E/Q94N/R155S/R180W/S121R/S35A/S48A/V306I/V36M/Y140S/Y91S)
# method_summary: biochemical
Where a SMILES comes first, the peptide text is derived from it.
Binary label based on IC50 with cut-off 6 nM: below gives met, not below gives not met.

INSERT INTO results (compound, category_label) VALUES
  ('CC[C@H](C)[C@H](NC(=O)[C@@H](NC(=O)[C@@H](N)CCCCN)[C@@H](C)O)C(=O)N[C@@H](CC(N)=O)C(=O)N[C@@H](C)C(=O)N[C@@H](CC(C)C)C(=O)N[C@H](C(=O)N[C@@H](Cc1ccc(O)cc1)C(=O)N[C@@H](Cc1ccccc1)C(=O)O)C(C)C [3102.0359] (H-KTINALVYF-OH)', 'met');

Then this compound:
*Q* In the record for CC(C)C[C@H](N)C(=O)N[C@@H](CO)C(=O)N[C@@H](Cc1ccc(O)cc1)C(=O)N[C@@H](Cc1ccc(O)cc1)C(=O)N[C@H](C(=O)N[C@H](C(=O)N[C@@H](Cc1ccc(O)cc1)C(=O)N[C@H](C(=O)N[C@@H](Cc1ccccc1)C(=O)O)C(C)C)C(C)C)C(C)C [3102.1098] (H-LSYYVVYVF-OH) , is IC50 less than 6 nM?
*A* not met

====

# system_tested: H-2 D^d (Mus musculus)
# Sequence (P01900 whole entry, looked up): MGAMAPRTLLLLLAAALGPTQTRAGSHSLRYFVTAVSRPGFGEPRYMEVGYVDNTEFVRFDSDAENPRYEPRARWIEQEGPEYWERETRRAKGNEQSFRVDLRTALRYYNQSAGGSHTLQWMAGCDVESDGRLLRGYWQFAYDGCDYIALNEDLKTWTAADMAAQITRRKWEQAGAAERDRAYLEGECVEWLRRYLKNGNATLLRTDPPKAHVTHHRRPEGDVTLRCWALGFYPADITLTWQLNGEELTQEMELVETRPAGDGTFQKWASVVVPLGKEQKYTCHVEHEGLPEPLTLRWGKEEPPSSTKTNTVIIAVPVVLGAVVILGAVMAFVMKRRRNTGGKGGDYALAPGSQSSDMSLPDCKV
# Type: binding
What Normalized average relative binding affinity (ARB), H-2 Dd was measured for each of the following?
Numbers only.

In the examples that follow, each entry is paired with its recorded Normalized average relative binding affinity (ARB), H-2 Dd.
INSERT INTO measurements (input_sequence, numeric_value) VALUES
  ('XPXXXXXXX [3064.0033]', 0.064),
  ('XFXXXXXXX [3064.0025]', 0.074),
  ('XKXXXXXXX [3064.0029]', 0.093);

Can you give me Normalized average relative binding affinity (ARB), H-2 Dd for all of these, one by one?
1. XXVXXXXXX [3064.0058]
2. XWXXXXXXX [3064.0039]
3. XXHXXXXXX [3064.0047]
4. NXXXXXXXX [3064.0012]
5. AXXXXXXXX [3064.0001]
6. XXAXXXXXX [3064.0041]

*A*
1. 0.0094
2. 0.061
3. 0.0028
4. 0.19
5. 0.20
6. 0.0028

====

I'd be grateful if you could share measured pIC50 for these entries.
# system_tested: HLA B*1503 (Homo sapiens, UniProt P01889, A329T/A93T/A95T/C349S/D201E/D98Y/E187L/E204Q/K202T/N87E/Q94N/R155S/R180L/S121R/S35A/V306I/V36M/Y140S/Y91S)
# method_summary: biochemical
Where a SMILES comes first, the peptide text is derived from it.
Numbers only, as −log10 of the molar value.

INSERT INTO assay_data (molecule, numeric_value) VALUES
  ('CC(C)[C@H](NC(=O)[C@H](CC(=O)O)NC(=O)[C@H](CCC(=O)O)NC(=O)[C@@H](NC(=O)[C@H](CO)NC(=O)[C@@H](N)CCCCN)C(C)C)C(=O)N[C@@H](CO)C(=O)N[C@@H](C)C(=O)N[C@@H](Cc1ccccc1)C(=O)O [3102.1062] (H-KSVEDVSAF-OH)', 7.85),
  ('CC(C)[C@H](NC(=O)[C@H](Cc1ccccc1)NC(=O)[C@H](CC(=O)O)NC(=O)[C@H](CC(N)=O)NC(=O)[C@H](CCCCN)NC(=O)[C@@H]1CCCN1C(=O)[C@@H](N)Cc1ccccc1)C(=O)N[C@@H](CO)C(=O)N[C@@H](Cc1ccccc1)C(=O)O [3102.0637] (H-FPKNDFVSF-OH)', 8.38),
  ('CSCC[C@H](NC(=O)[C@@H](N)CC(C)C)C(=O)N[C@@H](Cc1ccccc1)C(=O)N[C@@H](CCCCN)C(=O)N[C@@H](Cc1c[nH]cn1)C(=O)N[C@@H](CC(C)C)C(=O)N[C@@H](CC(C)C)C(=O)N[C@@H](Cc1c[nH]cn1)C(=O)N1CCC[C@H]1C(=O)O [3102.0908] (H-LMFKHLLHP-OH)', 7.59),
  ('NCCCC[C@H](NC(=O)[C@H](CC(=O)O)NC(=O)[C@H](CC(N)=O)NC(=O)[C@H](CC(N)=O)NC(=O)[C@H](Cc1ccc(O)cc1)NC(=O)[C@H](CCCCN)NC(=O)[C@@H](N)CCCCN)C(=O)N[C@@H](CO)C(=O)N[C@@H](Cc1ccccc1)C(=O)O [3102.1179] (H-KKYNNDKSF-OH)', 10.11);

Could you tell me pIC50 for each of these molecules? They are listed below.
1. CC[C@H](C)[C@H](NC(=O)[C@@H](NC(=O)[C@H](C)NC(=O)[C@H](CS)NC(=O)[C@H](CCCNC(=N)N)NC(=O)[C@@H](NC(=O)[C@@H](N)Cc1ccccc1)[C@@H](C)O)C(C)C)C(=O)N1CCC[C@H]1C(=O)N[C@@H](Cc1ccccc1)C(=O)O [3102.1166] (H-FTRCAVIPF-OH)
2. CC(C)C[C@H](NC(=O)[C@H](CO)NC(=O)[C@H](CO)NC(=O)CNC(=O)[C@H](CO)NC(=O)[C@H](CCCCN)NC(=O)[C@H](C)NC(=O)[C@H](CCC(N)=O)NC(=O)[C@@H](N)CC(C)C)C(=O)O [3102.1276] (H-LQAKSGSSL-OH)
3. CC[C@H](C)[C@H](N)C(=O)N[C@@H](CCCCN)C(=O)N[C@@H](CO)C(=O)N[C@@H](Cc1ccc(O)cc1)C(=O)N[C@H](C(=O)N[C@H](C(=O)N[C@@H](CCCNC(=N)N)C(=O)N[C@H](C(=O)N[C@@H](Cc1ccccc1)C(=O)O)C(C)C)[C@@H](C)CC)[C@@H](C)O [3102.1137] (H-IKSYTIRVF-OH)

*A*
1: 8.27; 2: 9.48; 3: 8.80

Sourced from paper PMC2248166
